Attribution: patent US20180298024A1

method: Pharmacokinetic profile in mice (plasma, LC-MS/MS)
protocol_conditions: male, CD-1, mouse, plasma, po, 5 mg/kg
property_name: AUC(0-inf) (ng·h/mL)

INSERT INTO assay_data (line_notation, test_result) VALUES
  ('C[C@]12CC=C3C=C4CC[C@@H](N5CC(N)C5)C[C@]45CC[C@]3(O5)[C@@H]1CC[C@@H]2c1ccc2ccncc2c1', 1480);

----------
system_under_test: Dopamine Transporter (Homo sapiens)
Sequence (Q01959 whole entry): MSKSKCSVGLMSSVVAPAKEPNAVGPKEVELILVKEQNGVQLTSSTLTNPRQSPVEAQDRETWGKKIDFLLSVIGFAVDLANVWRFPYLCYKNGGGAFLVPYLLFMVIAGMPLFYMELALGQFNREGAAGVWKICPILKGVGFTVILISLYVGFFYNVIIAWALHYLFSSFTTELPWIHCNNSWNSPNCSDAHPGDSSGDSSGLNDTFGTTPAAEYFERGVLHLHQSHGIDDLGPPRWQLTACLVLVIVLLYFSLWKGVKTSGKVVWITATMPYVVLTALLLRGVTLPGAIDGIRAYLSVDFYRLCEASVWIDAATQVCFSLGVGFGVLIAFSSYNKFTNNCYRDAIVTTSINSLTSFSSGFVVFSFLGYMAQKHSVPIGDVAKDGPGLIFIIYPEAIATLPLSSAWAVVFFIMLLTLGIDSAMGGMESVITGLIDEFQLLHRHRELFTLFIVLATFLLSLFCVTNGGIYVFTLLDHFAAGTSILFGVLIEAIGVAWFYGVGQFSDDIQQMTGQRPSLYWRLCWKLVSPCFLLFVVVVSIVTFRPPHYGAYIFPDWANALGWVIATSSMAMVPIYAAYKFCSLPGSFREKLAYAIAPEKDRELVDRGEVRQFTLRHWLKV
property_name: Ki (µM)

INSERT INTO measurements (compound, test_result) VALUES
  ('C[C@]12CC=C3C=C4CC[C@@H](O)C[C@]45CC[C@]3(O5)[C@@H]1CC[C@@H]2c1ccc2ccncc2c1 [Compound A]', 3.89);
